From: ChEMBL document CHEMBL1130135

- tested_on: Integrin alpha-V/beta-3 (Homo sapiens, UniProt P05106+P06756)
- Sequence (P05106 27-788 limits assumed): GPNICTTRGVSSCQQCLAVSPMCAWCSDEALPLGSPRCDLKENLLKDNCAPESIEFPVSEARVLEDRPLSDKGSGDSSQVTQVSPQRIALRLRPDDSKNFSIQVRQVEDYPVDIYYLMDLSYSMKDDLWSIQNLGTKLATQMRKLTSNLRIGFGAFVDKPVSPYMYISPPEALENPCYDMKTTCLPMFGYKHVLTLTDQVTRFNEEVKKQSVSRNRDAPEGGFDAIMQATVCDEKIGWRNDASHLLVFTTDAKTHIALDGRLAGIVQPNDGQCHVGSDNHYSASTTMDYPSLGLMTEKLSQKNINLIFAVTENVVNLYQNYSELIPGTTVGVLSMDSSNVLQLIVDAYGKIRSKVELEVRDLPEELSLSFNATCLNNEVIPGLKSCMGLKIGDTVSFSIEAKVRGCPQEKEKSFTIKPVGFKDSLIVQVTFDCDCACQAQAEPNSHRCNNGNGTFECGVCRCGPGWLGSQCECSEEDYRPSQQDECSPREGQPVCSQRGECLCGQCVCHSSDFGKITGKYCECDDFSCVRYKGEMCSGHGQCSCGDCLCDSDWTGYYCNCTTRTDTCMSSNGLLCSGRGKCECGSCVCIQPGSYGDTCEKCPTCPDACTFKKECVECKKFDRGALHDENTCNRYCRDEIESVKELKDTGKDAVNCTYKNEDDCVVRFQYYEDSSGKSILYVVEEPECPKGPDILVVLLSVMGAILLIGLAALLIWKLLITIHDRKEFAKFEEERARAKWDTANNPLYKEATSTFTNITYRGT
- Sequence (P06756 31-889 limits assumed): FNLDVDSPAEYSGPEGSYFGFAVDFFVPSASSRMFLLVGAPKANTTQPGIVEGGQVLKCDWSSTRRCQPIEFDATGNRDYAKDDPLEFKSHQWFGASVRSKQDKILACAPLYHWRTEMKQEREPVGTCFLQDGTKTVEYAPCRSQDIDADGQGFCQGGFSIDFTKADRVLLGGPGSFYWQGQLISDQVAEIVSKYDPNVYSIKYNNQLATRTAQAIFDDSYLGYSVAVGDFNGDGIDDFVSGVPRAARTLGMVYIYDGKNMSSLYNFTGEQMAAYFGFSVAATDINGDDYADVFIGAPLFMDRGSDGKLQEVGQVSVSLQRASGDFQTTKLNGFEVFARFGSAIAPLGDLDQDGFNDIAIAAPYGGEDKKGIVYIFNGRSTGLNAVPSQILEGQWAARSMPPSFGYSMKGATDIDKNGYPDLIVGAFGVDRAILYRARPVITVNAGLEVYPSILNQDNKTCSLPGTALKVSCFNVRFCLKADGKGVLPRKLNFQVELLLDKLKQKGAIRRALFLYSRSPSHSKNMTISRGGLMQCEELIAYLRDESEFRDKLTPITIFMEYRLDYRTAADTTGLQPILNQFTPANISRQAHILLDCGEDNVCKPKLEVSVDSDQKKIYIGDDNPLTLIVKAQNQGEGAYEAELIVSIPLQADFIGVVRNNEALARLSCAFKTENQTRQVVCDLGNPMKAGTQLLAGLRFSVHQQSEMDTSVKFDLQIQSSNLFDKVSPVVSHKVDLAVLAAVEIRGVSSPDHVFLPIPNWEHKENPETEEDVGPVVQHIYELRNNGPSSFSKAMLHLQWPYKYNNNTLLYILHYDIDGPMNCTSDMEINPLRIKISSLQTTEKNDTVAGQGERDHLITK
- Sequence (P06756 891-1048 limits assumed): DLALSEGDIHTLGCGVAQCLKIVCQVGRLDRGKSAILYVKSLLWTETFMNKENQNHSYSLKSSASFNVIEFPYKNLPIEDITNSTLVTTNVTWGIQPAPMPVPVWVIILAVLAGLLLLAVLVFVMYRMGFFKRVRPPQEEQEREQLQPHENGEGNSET
- assay_explanation: Inhibition of adhesive protein binding to alphaV-beta3 vitronectin receptor using ELISA
Give measured IC50 for each item. Keep answers brief.

## Task Find the recorded IC50 belonging to N=C(N)c1ccc2c(C(=O)NCCCCCCC(=O)O)c[nH]c2c1 and report it.
## Result > 100 µM

## Task Another: N=C(N)c1ccc2c(C(=O)NCCCCCCC(=O)O)[nH]nc2c1
## Result > 100 µM

## Task Another: N=C(N)c1ccc2oc(C(=O)NCCCCCCC(=O)O)cc2c1
## Result > 100 µM

====

- tested_on: Integrin alpha-IIb/beta-3 (Homo sapiens, UniProt P05106+P08514)
- Sequence (P05106 27-788 limits assumed): as the sequence (P05106 27-788 limits assumed) above
- Sequence (P08514 32-887 limits assumed): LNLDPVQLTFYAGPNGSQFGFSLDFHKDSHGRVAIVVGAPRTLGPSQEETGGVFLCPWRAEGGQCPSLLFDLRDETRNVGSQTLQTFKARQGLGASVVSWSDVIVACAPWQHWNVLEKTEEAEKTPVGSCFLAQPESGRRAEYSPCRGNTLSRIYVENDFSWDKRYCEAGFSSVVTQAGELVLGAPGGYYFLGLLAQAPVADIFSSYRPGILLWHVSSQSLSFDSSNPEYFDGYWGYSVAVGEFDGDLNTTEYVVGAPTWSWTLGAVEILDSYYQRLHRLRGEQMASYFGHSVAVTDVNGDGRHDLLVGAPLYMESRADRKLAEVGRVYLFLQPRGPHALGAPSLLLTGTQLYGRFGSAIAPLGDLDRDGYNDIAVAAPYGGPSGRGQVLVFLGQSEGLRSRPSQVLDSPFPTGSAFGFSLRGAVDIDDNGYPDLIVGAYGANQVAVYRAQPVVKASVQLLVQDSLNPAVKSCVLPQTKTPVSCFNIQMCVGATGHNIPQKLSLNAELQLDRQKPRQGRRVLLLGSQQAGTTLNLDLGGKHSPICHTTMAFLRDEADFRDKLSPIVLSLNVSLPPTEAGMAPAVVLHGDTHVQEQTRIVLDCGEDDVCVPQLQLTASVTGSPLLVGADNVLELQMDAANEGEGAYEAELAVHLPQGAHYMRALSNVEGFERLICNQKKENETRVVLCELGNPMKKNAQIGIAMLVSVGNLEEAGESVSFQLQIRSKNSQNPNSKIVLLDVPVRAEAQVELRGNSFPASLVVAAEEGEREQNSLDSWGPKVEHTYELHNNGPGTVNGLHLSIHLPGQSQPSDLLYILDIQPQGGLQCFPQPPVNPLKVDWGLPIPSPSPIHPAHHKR
- Sequence (P08514 891-1039 limits assumed): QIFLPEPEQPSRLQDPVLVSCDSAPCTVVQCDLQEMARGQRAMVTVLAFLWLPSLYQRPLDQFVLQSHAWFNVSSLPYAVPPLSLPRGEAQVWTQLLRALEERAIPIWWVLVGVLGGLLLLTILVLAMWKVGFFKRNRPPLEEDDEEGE
- assay_explanation: Antagonism of fibrinogen binding to a purified human fibrinogen receptor preparation.
- Format: protein-complex assay
property_name: IC50 (nM)
Numbers only; they are read as nM.

## Task Find the recorded IC50 belonging to CCCCC(CCCCNC(=O)c1cc2cc(C(=N)N)ccc2[nH]1)CC(=O)O (stereo not given) and report it.
## Result 790

## Task Another: CC(CCCCCNC(=O)c1cc2cc(C(=N)N)ccc2[nH]1)C(=O)O (stereo not given)
## Result 6900

## Task Another: N=C(N)c1ccc2[nH]c(C(=O)NCCC(=O)NCCC(=O)O)cc2c1
## Result 760

## Task Another: N=C(N)c1ccc2c(C(=O)NCCCCCCC(=O)O)[nH]nc2c1
## Result 20

## Task Another: Cc1c(C(=O)NCCCCCCC(=O)O)[nH]c2ccc(C(=N)N)cc12
## Result 1700

## Task Another: CCC(CCCCNC(=O)c1cc2cc(C(=N)N)ccc2[nH]1)CC(=O)O (stereo not given)
## Result 440

## Task Another: N=C(N)c1ccc2sc(C(=O)NCCCCCCC(=O)O)cc2c1
## Result 850

## Task Another: CC(CCCCNC(=O)c1cc2cc(C(=N)N)ccc2[nH]1)CC(=O)O (stereo not given)
## Result 310

## Task Another: N=C(N)c1ccc2[nH]c(C(=O)NCc3ccc(CCC(=O)O)cc3)cc2c1
## Result 4000

## Task Another: N=C(N)c1ccc2[nH]c(C(=O)NCCCC(=O)NCC(=O)O)cc2c1
## Result 7400
